Numbers sourced from patent US6914045B2.

Tested on: Escherichia coli
Experimental Protocol: in vitro antibacterial evaluation, MIC by broth dilution
Assay type: cell-based
Protocol Conditions: 18 hours at 35° C., strain ATCC 25922
Assay Metric: MIC Escherichia coli (ATCC 25922)

Compound	MIC Escherichia coli (ATCC 25922)
CC(c1ccccc1)C1NC(=O)CNC(=O)C(CO)NC(=O)C(C(O)C2CNC(=N)N2C2OC(CO)C(O)C(O)C2O)NC(=O)C(C(O)C2CNC(=N)N2)NC(=O)C(Cc2ccc(OC3OC(CO)C(OC4OC(COC(=O)OCc5ccccc5)C(O)C(O)C4O)C(O)C3O)cc2)NC1=O (stereo not shown) [Example 101a]	64 µg/mL
CC(c1ccccc1)C1NC(=O)CNC(=O)C(CO)NC(=O)C(C(O)C2CNC(=N)N2C2OC(CO)C(O)C(O)C2O)NC(=O)C(C(O)C2CNC(=N)N2)NC(=O)C(Cc2ccc(OC3OC(CO)C(OC4OC(CO)C(O)C5OC(c6ccccc6)OC45)C(O)C3O)cc2)NC1=O (single isomer, unassigned) [Example 104a]	>64 µg/mL
CCCCCC1OCC2OC(OC3C(CO)OC(Oc4ccc(CC5NC(=O)C(C(C)c6ccccc6)NC(=O)CNC(=O)C(CO)NC(=O)C(C(O)C6CNC(=N)N6C6OC(CO)C(O)C(O)C6O)NC(=O)C(C(O)C6CNC(=N)N6)NC5=O)cc4)C(O)C3O)C(O)C(O)C2O1 (stereo not shown)	32 µg/mL

query: Fill blank: measured MIC Escherichia coli (ATCC 25922) of the compound CC(c1ccccc1)C1NC(=O)CNC(=O)C(CO)NC(=O)C(C(O)C2CNC(=N)N2C2OC(CO)C(O)C(O)C2O)NC(=O)C(C(O)C2CNC(=N)N2)NC(=O)C(Cc2ccc(OC3OC(CO)C(OC4OC5COC(c6cccc(O)c6)OC5C(O)C4O)C(O)C3O)cc2)NC1=O (stereo not shown) is ____.
result: >64 µg/mL
